- system: Tyrosine-protein kinase BTK (Homo sapiens, UniProt Q06187); further: in the data inactive means no Kd found up to 30 µM
- Sequence (Q06187 whole entry): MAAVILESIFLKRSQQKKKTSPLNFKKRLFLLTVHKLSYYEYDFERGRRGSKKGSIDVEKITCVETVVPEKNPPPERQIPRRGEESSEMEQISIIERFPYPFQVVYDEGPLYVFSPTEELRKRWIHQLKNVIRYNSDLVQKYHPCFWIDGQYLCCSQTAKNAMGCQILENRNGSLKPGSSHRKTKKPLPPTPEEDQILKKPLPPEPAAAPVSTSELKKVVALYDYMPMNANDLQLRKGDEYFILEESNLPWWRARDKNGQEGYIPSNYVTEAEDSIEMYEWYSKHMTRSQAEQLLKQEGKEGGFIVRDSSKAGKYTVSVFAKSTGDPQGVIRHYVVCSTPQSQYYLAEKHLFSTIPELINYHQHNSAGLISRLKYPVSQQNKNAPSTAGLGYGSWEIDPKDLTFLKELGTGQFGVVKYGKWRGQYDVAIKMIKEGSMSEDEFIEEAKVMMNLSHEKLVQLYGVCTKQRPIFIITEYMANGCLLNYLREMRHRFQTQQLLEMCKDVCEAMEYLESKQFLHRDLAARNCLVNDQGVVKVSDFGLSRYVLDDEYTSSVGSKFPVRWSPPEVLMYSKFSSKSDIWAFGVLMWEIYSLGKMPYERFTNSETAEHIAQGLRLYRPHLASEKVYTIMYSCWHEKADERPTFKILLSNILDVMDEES
The source made the active and inactive calls.
# output must be one of TRUE (active), FALSE (inactive)

Take a look at these entries with their results.
> print(dat)
                                   compound  category
1  COCCN1CCN(Cc2ccc(-c3n[nH]c4c3C(=O)c3c(NC(=O)NN5CCOCC5)cccc3-4)cc2)CC1     FALSE
2  O[C@H]1CC[C@H](Nc2ncc3nc(Nc4c(F)cc(F)cc4F)n([C@H]4CCOC4)c3n2)CC1     FALSE
3  CC(C)(O)CC(=O)NCCn1ccc2ncnc(Nc3ccc(Oc4cccc(C(F)(F)F)c4)c(Cl)c3)c21     FALSE
4    O=C(NC[C@H](O)CO)c1ccncc1Nc1ccc(I)cc1F     FALSE
5  COc1ccc2c(OCc3nnc4ccc(-c5ccccc5)nn34)ccnc2c1     FALSE

Check the results log: what was the call for `O=c1[nH]c([C@@H]2CCCN2)nc2c1oc1ccc(Cl)cc12` ?
FALSE

I would be grateful if you could indicate the recorded call for `COc1cccc(Nc2ncnn3ccc(CN4CC[C@@H](N)[C@H](O)C4)c23)c1` .
FALSE

Short answer needed: outcome of this test for `C=CC(=O)Nc1cccc(Nc2nc(Nc3ccc(N4CCN(C(C)=O)CC4)cc3OC)ncc2C(F)(F)F)c1` ?
TRUE

Given `Cc1ccc(C(=O)Nc2ccc(Oc3cc4cnn(C)c4cc3-c3cn[nH]c3)c(F)c2)c(=O)n1-c1ccc(F)cc1` , state the outcome it received in this test.
FALSE

Write down the call the test reported for this compound. Item: `COc1cccc2cc(-c3nc([C@H]4CC[C@H](C(=O)O)CC4)n4ncnc(N)c34)[nH]c12`
FALSE

// return assay outcome for `C=CC(=O)Nc1cc(Nc2nccc(-c3cn(C)c4ccccc34)n2)c(OC)cc1N(C)CCN(C)C`
TRUE

Per the records of this test, what outcome belongs to `Cc1cc(-c2cc(OC(=O)c3ccccc3)ccc2Cl)cc2nnc(Nc3ccc(OCCN4CCCC4)cc3)nc12` ?
FALSE

Recorded call for `NC[C@@](O)(c1ccc(Cl)cc1)c1ccc(-c2cn[nH]c2)cc1` ?
FALSE

// param item: `Cc1c(Cn2c(C)nc3c(C(=O)O)cc(N4CCOCC4)cc32)cccc1C(F)(F)F` ; yields the recorded call
FALSE

What is the recorded call for this compound in the test? `CNC(=O)c1cccc(-c2ccc3c(N4CCOC[C@@H]4C)nc(N4CCOC[C@@H]4C)nc3n2)c1`
FALSE

Please let me know the test result on file for `C=CCN(/C=C1/C(=O)O[C@H](COC)[C@@]2(C)C1=C(O)C(=O)C1=C2[C@H](OC(C)=O)C[C@]2(C)C(=O)CC[C@@H]12)CC=C` .
FALSE

Test call for this compound, please: O=S(=O)(c1cccc2c(O)nccc12)N1CCCNCC1 [HYDROXYFASUDIL]
FALSE

Record request — test call for `CC(C)CC(=O)Nc1[nH]nc2c1CN(C(=O)C1CCN(C)CC1)C2(C)C`
FALSE

Which outcome was assigned to `Cc1c(NC(=O)OC[C@@H]2COCCN2)cn2ncnc(Nc3ccc4c(cnn4Cc4cccc(F)c4)c3)c12` in this test?
FALSE

Please state the recorded outcome for this compound: `S=C(NCc1ccc2c(c1)OCO2)N1CCN(c2ncnc3c2oc2ccccc23)CC1`
FALSE

Could you kindly confirm the outcome this assay logged for `CCc1cc2c(cc1N1CCC(N3CCOCC3)CC1)C(C)(C)c1[nH]c3cc(C#N)ccc3c1C2=O` ?
FALSE
